Recorded measurements of EC50 group, cGMP in GTM-3 cells, one per entry
Target: T1, natriuretic peptide receptor-B (human)
T1 chain: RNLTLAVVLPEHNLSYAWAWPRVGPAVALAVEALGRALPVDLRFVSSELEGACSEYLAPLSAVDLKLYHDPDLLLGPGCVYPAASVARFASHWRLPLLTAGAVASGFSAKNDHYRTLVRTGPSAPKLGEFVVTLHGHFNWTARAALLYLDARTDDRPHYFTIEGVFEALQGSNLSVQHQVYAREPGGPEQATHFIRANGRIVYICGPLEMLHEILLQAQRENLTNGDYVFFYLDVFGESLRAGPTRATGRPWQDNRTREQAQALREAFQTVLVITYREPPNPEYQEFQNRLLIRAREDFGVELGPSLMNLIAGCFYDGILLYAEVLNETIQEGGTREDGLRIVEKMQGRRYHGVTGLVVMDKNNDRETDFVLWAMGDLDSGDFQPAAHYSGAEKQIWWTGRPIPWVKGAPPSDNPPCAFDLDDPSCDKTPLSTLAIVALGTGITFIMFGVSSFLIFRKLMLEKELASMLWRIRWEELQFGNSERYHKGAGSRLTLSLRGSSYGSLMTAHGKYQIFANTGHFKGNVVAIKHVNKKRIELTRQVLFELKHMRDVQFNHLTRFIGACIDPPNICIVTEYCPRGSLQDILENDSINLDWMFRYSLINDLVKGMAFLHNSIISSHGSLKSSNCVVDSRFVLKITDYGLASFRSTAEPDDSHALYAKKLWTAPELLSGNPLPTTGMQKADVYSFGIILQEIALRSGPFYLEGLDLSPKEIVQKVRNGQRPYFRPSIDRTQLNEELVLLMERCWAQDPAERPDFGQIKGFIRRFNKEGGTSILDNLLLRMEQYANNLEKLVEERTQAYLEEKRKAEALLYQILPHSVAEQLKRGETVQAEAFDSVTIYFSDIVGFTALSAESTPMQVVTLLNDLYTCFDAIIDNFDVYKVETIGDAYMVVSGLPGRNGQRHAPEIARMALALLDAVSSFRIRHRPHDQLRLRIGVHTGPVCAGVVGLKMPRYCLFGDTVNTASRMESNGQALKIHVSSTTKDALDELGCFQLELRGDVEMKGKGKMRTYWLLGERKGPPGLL
Test: cell-based or functional assay
Numbered stars: 1 amine (or outer) side, 2 acyl side, 3 side chain; on linkers, the order of the positions; unused ones are H or OH. Square brackets hold non-standard residues; d marks the D form. Ends that are not written are not given here. * marks the point of attachment. afL = (R)-2-((R)-3-amino-2-oxopyrrolidin-1-yl)-3-phenylpropanoic acid, O=C1[C@H](N[*:1])CCN1[C@H](Cc1ccccc1)C(=O)[*:2]; Gluc‑Aoa = (2,3,4,5,6-pentahydroxyhexylidenaminooxy)-acetic acid; Pro(trans-4-NH2) = O=C([C@@H]1C[C@@H](N[*:3])CN1[*:1])[*:2]; Sni = (S)-nipecotic acid, O=C([C@H]1CCCN([*:1])C1)[*:2]; dDap(Me2) = CN(C)C[C@@H](N)C(=O)O; Hyp = O=C(O)[C@@H]1C[C@@H](O)CN1; NMeF = CN[C@@H](Cc1ccccc1)C(=O)O; Aoc(2) = CCCCCC[C@H](N)C(=O)O; NMeL = CN[C@@H](CC(C)C)C(=O)O; hSer = N[C@@H](CCO)C(=O)O; Nle = CCCC[C@H](N)C(=O)O; Octanoyl = CCCCCCCC(=O)*; 1913 = not defined here; Che = not defined here; leu = not defined here; Occ = octanoic acid

Examples with their reported EC50 group, cGMP in GTM-3 cells follow.
Octanoyl-[Sni]F[dL]L[Pro(trans-4-NH2)][NMeL]VRI-NH2 [JAL-1404]: ≤ 5 µM
[Occ]AFGLPL[hSer]RI-NH2 (not fully specified (residue 2); printed as Occ-ala-Phe-Gly-Leu-Pro-Leu-Hse-Arg-Ile-NH2) [JAL-0993]: ≤ 15 µM
1913-[Aoc(2)][Sni]FLL[Hyp][NMeL]DRI-NH2 (not fully specified (some residues); printed as (1913)-Hgl-Sni-Phe-leu-Leu-Hyp-Nml-Asp-Arg-Ile-NH2; reading uncertain) [JAL-1804]: ≤ 5 µM

Find the recorded EC50 group, cGMP in GTM-3 cells belonging to Octanoyl-[Sni]F[dDap(Me2)]L[Pro(trans-4-NH2)][NMeL]DRI-NH2 [JAL-1369] and report it.
≤ 1 µM

Find the recorded EC50 group, cGMP in GTM-3 cells belonging to Octanoyl-[dA][NMeF][dR]L[Hyp][NMeL]DRI-NH2 [JAL-1085] and report it.
≤ 1 µM

Find the recorded EC50 group, cGMP in GTM-3 cells belonging to [Occ][Sni]FLL[Hyp][NMeL][Nle]R[Che] (not fully specified (residue 4); printed as Occ-Sni-Phe-leu-Leu-Hyp-Nml-Nle-Arg-Che; reading uncertain) [JAL-1755] and report it.
≤ 15 µM

Find the recorded EC50 group, cGMP in GTM-3 cells belonging to [Occ][afL][leu]L[Hyp][NMeL]DRI-NH2 (reading uncertain; also: printed as Occ-(afL)-leu-Leu-Hyp-Nml-Asp-Arg-Ile-NH2) [JAL-1637] and report it.
≤ 5 µM

Find the recorded EC50 group, cGMP in GTM-3 cells belonging to Octanoyl-[dA]F[dR]LPLDRI-NH2 [JAL-1031] and report it.
≤ 5 µM

Find the recorded EC50 group, cGMP in GTM-3 cells belonging to {Gluc‑Aoa}-[Aoc(2)][Sni]FLL[Hyp][NMeL]DRI-NH2 (not fully specified (some residues); printed as Gluc-Aoa-Hgl-Sni-Phe-leu-Leu-Hyp-Nml-Asp-Arg-Ile-NH2) [JAL-1802] and report it.
≤ 5 µM
